biological target: Potassium voltage-gated channel subfamily KQT member 2 (Rattus norvegicus); assay: KCNQ2 blockade in CHO cells – cell-based, FluxOR thallium flux, counter-screen for hERG block protector project, confirmation (AID 1946); settings: FluxOR thallium flux fluorescence, at 10 µM, zero marks the 3-SD hit cutoff
Out of some 2,400 compounds screened, about 180 (7.5%) were called active.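 The calls were made as follows: active = readout below zero, meaning a drop past 3 SD under the dofetilide-free negative control mean; inactive = the rest.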 The sample as a whole holds a higher share of actives than the screen did.
Outcomes you can answer with include only these: active, inactive

Before answering, review these 2 worked examples.
>  <compound>
CCOC(=O)c1c(-c2ccccc2)csc1NC(=S)NC

>  <group>
inactive

$$$$
>  <compound>
Cc1csc(NC(=O)c2cc3c(s2)CCCC3)n1

>  <group>
inactive

$$$$

Input: Could you kindly confirm the outcome this assay logged for COCCNC(=O)C(c1ccc(C)o1)N(Cc1ccc(OC)cc1)C(=O)Cn1nnc2ccccc21 (centres undefined) ?
Output: inactive

Input: Can you check CCOC(=O)N1CCC(N2C(=O)c3ccccc3C2Nc2cccnc2)CC1 (centres undefined) next?
Output: inactive

Input: Can you check Fc1ccc(NC(=S)Nc2nccs2)cc1 next?
Output: inactive

Input: Can you check NC(=O)C1CCN(C(=O)c2cc3c(s2)CCCC3)CC1 next?
Output: inactive

Input: Can you check O=c1cc(-c2c(F)c(F)c(F)c(F)c2F)oc2ccccc12 next?
Output: inactive

---

target: Potassium voltage-gated channel subfamily KQT member 2 (Rattus norvegicus); assay: KCNQ2 blockade in CHO cells – cell-based, FluxOR thallium flux, counter-screen for hERG block protector project, confirmation (AID 1946); details: FluxOR thallium flux fluorescence, at 10 µM, zero marks the 3-SD hit cutoff
The whole screen tested about 2,400 compounds, of which about 180 (7.5%) were called active.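 Rule for the calls: active = readout below zero, meaning a drop past 3 SD under the dofetilide-free negative control mean; inactive = the rest.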 The list comes from a sample in which actives are over-represented; it also holds close analogues and randomly drawn compounds.
Outcomes you can answer with include only these: class 1 for active, class 0 for inactive

Before answering, review these 8 worked examples.
>  <molecule>
CCc1c(C)sc(NC(=O)CN2CCN(C(=O)c3ccco3)CC2)c1C(=O)OC

>  <group>
class 0

$$$$
>  <molecule>
O=C(NC(=S)Nc1ccccc1)c1cccs1

>  <group>
class 0

$$$$
>  <molecule>
CN(Cc1ccccc1)C(=O)CCc1ccccc1

>  <group>
class 0

$$$$
>  <molecule>
CCCn1c(SCC(=O)N2CCN(C(C)=O)CC2)nc2sc3c(c2c1=O)CCC3

>  <group>
class 0

$$$$
>  <molecule>
N#Cc1ccc(-c2ccc(OCC(=O)Nc3cccnc3)cc2)cc1

>  <group>
class 0

$$$$
>  <molecule>
Cc1cc(C)c2nc(NC(=O)C3CCCO3)sc2c1 (configuration not stated)

>  <group>
class 1

$$$$
>  <molecule>
O=C(NC(=S)Nc1ccccc1)c1csnn1

>  <group>
class 0

$$$$
>  <molecule>
CSC(=S)N/N=C/c1ccccc1

>  <group>
class 0

$$$$

Input: Could you kindly confirm the outcome this assay logged for CCn1c(SCC(N)=O)nc2sc3c(c2c1=O)CCCC3 ?
Output: class 0

Input: Can you check O=C(COc1ccc2ccccc2c1Br)Nc1cccnc1 next?
Output: class 0

Input: Can you check O=C(COc1ccc([N+](=O)[O-])cc1)Nc1cccnc1 next?
Output: class 1

Input: Can you check CCC(=O)N1CCN(c2nc(CC)nc3sc4c(c23)CCCC4)CC1 next?
Output: class 1

---

Assignment: determine reported activity change vs negative control for the given compounds.
biological target: Potassium voltage-gated channel subfamily KQT member 2 (Rattus norvegicus) (UniProt O88943); test: KCNQ2 blockade in CHO cells – cell-based, FluxOR thallium flux, counter-screen for hERG block protector project, confirmation (AID 1946); conditions: FluxOR thallium flux fluorescence, at 10 µM, hits give low values, zero marks the 3-SD hit cutoff
Sequence (O88943 whole entry, looked up): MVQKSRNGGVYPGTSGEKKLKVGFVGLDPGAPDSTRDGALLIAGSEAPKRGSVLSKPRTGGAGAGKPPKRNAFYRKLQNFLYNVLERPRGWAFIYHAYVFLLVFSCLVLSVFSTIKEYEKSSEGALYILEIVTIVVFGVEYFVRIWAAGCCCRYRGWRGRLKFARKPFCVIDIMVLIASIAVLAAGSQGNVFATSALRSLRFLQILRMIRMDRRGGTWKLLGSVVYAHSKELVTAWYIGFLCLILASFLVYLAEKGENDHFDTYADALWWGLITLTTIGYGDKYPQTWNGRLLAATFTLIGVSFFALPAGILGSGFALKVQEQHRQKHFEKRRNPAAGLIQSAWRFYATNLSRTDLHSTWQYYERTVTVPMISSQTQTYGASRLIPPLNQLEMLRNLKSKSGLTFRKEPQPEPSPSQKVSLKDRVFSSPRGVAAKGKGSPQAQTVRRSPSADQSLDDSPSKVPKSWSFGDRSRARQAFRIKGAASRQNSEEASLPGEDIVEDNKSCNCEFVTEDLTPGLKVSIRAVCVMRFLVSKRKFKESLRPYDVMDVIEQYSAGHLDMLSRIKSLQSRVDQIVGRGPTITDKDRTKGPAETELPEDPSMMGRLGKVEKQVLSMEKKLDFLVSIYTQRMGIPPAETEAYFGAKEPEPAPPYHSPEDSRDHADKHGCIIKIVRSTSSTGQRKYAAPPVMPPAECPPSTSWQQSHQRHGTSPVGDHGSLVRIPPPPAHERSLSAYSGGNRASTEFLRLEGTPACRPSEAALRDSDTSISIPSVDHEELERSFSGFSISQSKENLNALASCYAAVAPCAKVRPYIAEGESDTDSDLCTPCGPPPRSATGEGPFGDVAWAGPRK
The campaign covered roughly 2,400 compounds. About 180 (7.5%) were called active. The sample holds actives, similar compounds and a random draw of the others, so the mix is not that of the screen.
One number for each entry, in %.

Answered cases to consult:
>  <compound>
CCOc1ccc(CCNC(=O)Nc2ccccc2C)cc1OCC

>  <unit name>
%

>  <activity change vs negative control>
13.5

$$$$
>  <compound>
CCOC(=O)C1CCN(S(=O)(=O)c2cccc3nonc23)CC1

>  <unit name>
%

>  <activity change vs negative control>
20.3

$$$$
>  <compound>
CCOC(=O)NC(=S)Nc1ccc(C(C)(C)C)cc1

>  <unit name>
%

>  <activity change vs negative control>
30.4

$$$$

Consider the following items and state reported activity change vs negative control for each.
1. NC(=O)c1cccnc1Nc1cccc([N+](=O)[O-])c1
2. O=C(NN1C(=O)C2C(c3ccccc3)C=CC(c3ccccc3)C2C1=O)c1cccc(Br)c1 (stereo unspecified)

Output:
1: 0.5; 2: 10.8

---

molecular target: Potassium voltage-gated channel subfamily KQT member 2 (Rattus norvegicus); assay: KCNQ2 blockade in CHO cells – cell-based, FluxOR thallium flux, counter-screen for hERG block protector project, confirmation (AID 1946); conditions: FluxOR thallium flux fluorescence, at 10 µM, hits give low values, zero marks the 3-SD hit cutoff
The campaign covered roughly 2,400 compounds. About 180 (7.5%) were called active. The full list was thinned out, with actives kept by preference.
hey, just use satisfied if measured activity change vs negative control is less than 30%, otherwise not satisfied

>  <molecule>
Cc1nn(C(=O)CNC(=O)c2ccccc2)c(C)c1C

>  <group>
not satisfied

$$$$
>  <molecule>
COc1cc(C2NC(=O)NC(C)=C2C(=O)OCC2CCCCC2)ccc1O (configuration not stated)

>  <group>
satisfied

$$$$
>  <molecule>
O=C(CCSc1ccc(Br)cc1)c1ccc(O)cc1

>  <group>
satisfied

$$$$
>  <molecule>
CC(NC(=O)c1ccncc1)C(C)(C)C (configuration not stated)

>  <group>
not satisfied

$$$$
>  <molecule>
CSc1nc2sc3c(c2c(=S)[nH]1)CC(C)(C)OC3

>  <group>
not satisfied

$$$$

Input: Could you please tell me whether activity change vs negative control recorded for COc1ccc(C(=O)NNC(=O)CSc2nnc(COc3ccccc3)n2C)cc1 is less than 30%?
Output: satisfied

Input: Can you check CCOC(=O)C(=CNc1cc(C)nn1C(C)(C)C)C(=O)OCC next?
Output: satisfied

Input: Can you check CC(C)CCNC(=O)CCc1nnc(Cc2c[nH]c3ccccc23)o1 next?
Output: satisfied

Input: Can you check CC(C)CN1C(=O)/C(=C/c2cccs2)NC1=S next?
Output: not satisfied

Input: Can you check COc1cccc(C(=O)Nc2cccc(-c3ccc(N4CCOCC4)nn3)c2)c1 next?
Output: satisfied

Input: Can you check CC1(C)CC2CC(C)(CN2C(=S)NC(=O)c2ccccc2Cl)C1 (configuration not stated) next?
Output: not satisfied

Input: Can you check COc1cccc(OC)c1OCCOCCN1CCN(C)CC1 next?
Output: satisfied

Input: Can you check CCOC(=O)/C(C)=N/NC(=O)c1cccc([N+](=O)[O-])c1 next?
Output: not satisfied

Input: Can you check CC(C)(C)c1ccc(/C=C/C(=O)N2CCCCC2)cc1 next?
Output: not satisfied

Input: Can you check O=c1c2ccccc2[nH]c(=S)n1CCc1ccccc1 next?
Output: not satisfied

Input: Can you check S=c1nc(-c2ccccc2)[nH]n1-c1ccccc1 next?
Output: not satisfied

Input: Can you check CC(NC(=O)NC1CCCCC1)c1ccccc1 (configuration not stated) next?
Output: not satisfied

Input: Can you check Cn1cnnc1SCC(=O)NCc1ccccc1 next?
Output: satisfied

Input: Can you check CCOC(=O)Cn1cc(C=O)c2ccccc21 next?
Output: satisfied

Input: Can you check COc1ccccc1C(=O)Nc1ccc(C(=O)N2CCCC2)cc1 next?
Output: satisfied

Input: Can you check C/C(=N\NC(N)=S)c1ccncc1 next?
Output: satisfied

Input: Can you check O=c1c2ccccc2nc(-c2ccc(Cl)c(Cl)c2)n1O next?
Output: not satisfied

Input: Can you check Cc1ccc(C2c3c(-c4ccccc4O)n[nH]c3C(=O)N2Cc2ccncc2)cc1 (configuration not stated) next?
Output: satisfied

Input: Can you check Cn1c(=S)[nH]c2sc3c(c2c1=O)CCC(C(C)(C)C)C3 (configuration not stated) next?
Output: not satisfied

Input: Can you check Cc1nnc(NC(=O)C2CCCN(S(=O)(=O)c3ccccc3C(F)(F)F)C2)s1 (configuration not stated) next?
Output: satisfied

---

molecular target: Potassium voltage-gated channel subfamily KQT member 2 (Rattus norvegicus) (UniProt O88943); test: KCNQ2 blockade in CHO cells – cell-based, FluxOR thallium flux, counter-screen for hERG block protector project, confirmation (AID 1946); conditions: FluxOR thallium flux fluorescence, at 10 µM, hits give low values, zero marks the 3-SD hit cutoff
Among all 2,400 compounds or so, about 180 (7.5%) were called active. For the sample, actives were picked, then their nearest neighbours and some compounds at random.
property label: activity change vs negative control (%)
Numbers only, in %.

Answered cases to consult:
>  <compound>
COc1ccc(NC(=O)C(=O)NNC(=O)COc2ccc(Cl)cc2)c(OC)c1

>  <activity change vs negative control / %>
38.6

$$$$
>  <compound>
CCCCC1(O)CC(C(F)(F)F)=NN1C(=O)COc1ccccc1 (stereo not drawn)

>  <activity change vs negative control / %>
-7.8

$$$$

Next item in the queue.
Input: I have this compound here, CCOC(=O)CSc1nnc(NC(=O)c2ccc3c(c2)OCO3)s1 , and I need its recorded activity change vs negative control.
Output: 5.6
